Measurement record for Dual specificity protein kinase CLK1 (Homo sapiens, UniProt P49759); quantity recorded: Kd.
Activity calls are given as the source filed them.

// known answers, use as guide
**Query** Endpoint output: Kd of CO[C@H]1C[C@@H]2CC[C@@H](C)[C@@](O)(O2)C(=O)C(=O)N2CCCC[C@H]2C(=O)O[C@H]([C@H](C)C[C@@H]2CC[C@@H](O)[C@H](OC)C2)CC(=O)[C@H](C)/C=C(\C)[C@@H](O)[C@@H](OC)C(=O)[C@H](C)C[C@H](C)/C=C/C=C/C=C/1C . Value?
**Result** > 30 µM (inactive)

**Query** Lookup Cn1cnc2c(F)c(Nc3ccc(Br)cc3F)c(C(=O)NOCCO)cc21
**Result** > 30 µM (inactive)

Moving on to the next compound.
**Query** GET /values?readout=Kd&item= CCNC(=O)C#Cc1ccc2c(c1)NC(=O)/C2=C(\Nc1ccc(CN(C)C)cc1)c1ccccc1
**Result** > 30 µM (inactive)
